Collected AUC(0-t) values appear next to each entry.
assay: Pharmacokinetics of compounds 1–11 in rat plasma (UPLC-TQ/MS) after oral administration of HYD and plus-minus Haizao/Gancao decoctions; format: in vivo, Wistar rats (PTU-induced model of hypothyroidism); conditions: Wistar, 2 mL/kg, group GH (extract of Gancao and Haizao), 2 mL/kg intragastrically, model rats, n = 6, mean ± S.D.
# output: bare number, implied unit ng·h/mL

compound: CC1(C)[C@@H](O)CC[C@]2(C)[C@H]3C(=O)C=C4[C@@H]5C[C@@](C)(C(=O)O)CC[C@]5(C)CC[C@@]4(C)[C@]3(C)CC[C@@H]12 [Compound 11, glycyrrhetinic acid]
u: ng·h/mL
AUC(0-t): 22800

Please look up its AUC(0-t): O=C1C[C@@H](c2ccc(O)cc2)Oc2cc(O)ccc21 [Compound 6, liquiritigenin]
681

Which AUC(0-t) is reported for this compound? O=C1C[C@@H](c2ccc(O[C@@H]3O[C@H](CO)[C@@H](O)[C@H](O)[C@H]3O)cc2)Oc2cc(O)ccc21 [Compound 1, liquiritin]
2510

Report AUC(0-t) for CC1(C)[C@@H](O[C@H]2O[C@H](C(=O)O)[C@@H](O)[C@H](O)[C@H]2O[C@@H]2O[C@H](C(=O)O)[C@@H](O)[C@H](O)[C@H]2O)CC[C@]2(C)[C@H]3C(=O)C=C4[C@@H]5C[C@@](C)(C(=O)O)CC[C@]5(C)CC[C@@]4(C)[C@]3(C)CC[C@@H]12 [Compound 7, glycyrrhizic acid] please.
3600
